Recorded pIC50 for the following molecules
# assayedSystem: PI3Kα (wild-type), P110/P85α (Homo sapiens, UniProt P42336)
# Sequence (P42336 whole entry): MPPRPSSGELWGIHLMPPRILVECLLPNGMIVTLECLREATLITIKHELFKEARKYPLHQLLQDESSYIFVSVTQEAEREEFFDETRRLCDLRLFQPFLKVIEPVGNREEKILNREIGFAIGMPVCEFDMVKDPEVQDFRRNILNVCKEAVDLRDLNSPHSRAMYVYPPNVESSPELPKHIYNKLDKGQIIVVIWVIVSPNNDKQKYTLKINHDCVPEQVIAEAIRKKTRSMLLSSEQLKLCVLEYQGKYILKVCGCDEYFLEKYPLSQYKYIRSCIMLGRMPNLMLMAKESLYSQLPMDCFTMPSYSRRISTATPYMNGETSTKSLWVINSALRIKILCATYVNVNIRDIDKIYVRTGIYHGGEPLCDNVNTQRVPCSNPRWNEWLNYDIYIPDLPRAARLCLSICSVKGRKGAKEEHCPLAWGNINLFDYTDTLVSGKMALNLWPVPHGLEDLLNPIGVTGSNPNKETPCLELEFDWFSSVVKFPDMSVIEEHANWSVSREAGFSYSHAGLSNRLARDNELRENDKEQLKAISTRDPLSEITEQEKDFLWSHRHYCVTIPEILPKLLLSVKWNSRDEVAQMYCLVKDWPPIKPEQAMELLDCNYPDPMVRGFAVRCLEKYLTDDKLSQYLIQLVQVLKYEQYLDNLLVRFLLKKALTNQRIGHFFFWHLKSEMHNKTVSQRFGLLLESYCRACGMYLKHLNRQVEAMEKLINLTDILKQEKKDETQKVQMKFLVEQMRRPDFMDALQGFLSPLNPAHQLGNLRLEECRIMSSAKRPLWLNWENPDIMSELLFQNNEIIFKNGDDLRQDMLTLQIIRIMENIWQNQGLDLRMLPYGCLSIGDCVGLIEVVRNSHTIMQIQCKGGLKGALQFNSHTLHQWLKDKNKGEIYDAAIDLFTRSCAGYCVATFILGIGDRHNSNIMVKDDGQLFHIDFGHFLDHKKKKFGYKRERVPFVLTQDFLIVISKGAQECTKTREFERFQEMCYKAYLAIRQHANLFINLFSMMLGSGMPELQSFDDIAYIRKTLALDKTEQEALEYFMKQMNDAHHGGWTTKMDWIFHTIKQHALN
# Sequence (P27986 whole entry partner): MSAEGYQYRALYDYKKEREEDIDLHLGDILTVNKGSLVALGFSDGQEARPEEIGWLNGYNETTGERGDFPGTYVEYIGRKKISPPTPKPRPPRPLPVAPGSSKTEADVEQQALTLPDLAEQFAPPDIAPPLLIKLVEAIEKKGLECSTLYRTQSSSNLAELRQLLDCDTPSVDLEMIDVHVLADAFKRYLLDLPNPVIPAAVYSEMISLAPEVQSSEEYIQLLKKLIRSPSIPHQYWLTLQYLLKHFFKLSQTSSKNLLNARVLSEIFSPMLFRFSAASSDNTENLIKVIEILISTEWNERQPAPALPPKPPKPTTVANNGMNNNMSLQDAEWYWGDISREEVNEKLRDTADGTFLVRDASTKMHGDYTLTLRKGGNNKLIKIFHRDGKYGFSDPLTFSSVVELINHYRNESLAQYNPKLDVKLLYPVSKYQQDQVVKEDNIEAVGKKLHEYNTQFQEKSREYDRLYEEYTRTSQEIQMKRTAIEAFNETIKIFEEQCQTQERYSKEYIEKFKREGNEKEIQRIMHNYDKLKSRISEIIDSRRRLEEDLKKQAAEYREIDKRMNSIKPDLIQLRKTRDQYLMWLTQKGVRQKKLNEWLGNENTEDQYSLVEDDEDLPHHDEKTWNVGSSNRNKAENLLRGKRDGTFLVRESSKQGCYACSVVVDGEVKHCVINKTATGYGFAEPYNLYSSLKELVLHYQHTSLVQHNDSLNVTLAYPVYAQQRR
# assayDetails: PI3 Kinase TR-FRET assay, PI3Kα (wild-type)
pIC50: −log10 of the molar value.
assayReadout: pIC50

CN1CCN(C(=O)c2ccc(NC(=O)Nc3ccc(-c4nc(N5CCOCC5)c5ncc(-c6cncnc6)cc5n4)cc3)cc2)CC1 [Example 67] :: > 7.30
Cc1noc(C)c1-c1ccc2c(N3CCOCC3)nc(-c3ccc(NC(=O)Nc4ccc(C(=O)N(C)C)c(F)c4)cc3)nc2c1 [Example 246] :: 6.70 to 7.30
CN(C)C(=O)c1ccc(NC(=O)Nc2ccc(-c3nc(N4CCOCC4)c4ccc(-c5ccco5)cc4n3)cc2)c(F)c1 [Example 160] :: > 7.30
COc1ccc2c(N3CCOCC3)nc(-c3ccc(NC(=O)Nc4ccc(C(=O)N(C)C)cc4)cc3)nc2c1 [Example 180] :: > 7.30
